For each entry below, report its pKd value.
- measurement.target: T1, recombinant human CD33 protein (Sino Biologicals) (human, UniProt P20138 18-259)
- T1 construct: Bought protein; also called recombinant CD33
- T1 sequence (P20138 18-259 limits assumed): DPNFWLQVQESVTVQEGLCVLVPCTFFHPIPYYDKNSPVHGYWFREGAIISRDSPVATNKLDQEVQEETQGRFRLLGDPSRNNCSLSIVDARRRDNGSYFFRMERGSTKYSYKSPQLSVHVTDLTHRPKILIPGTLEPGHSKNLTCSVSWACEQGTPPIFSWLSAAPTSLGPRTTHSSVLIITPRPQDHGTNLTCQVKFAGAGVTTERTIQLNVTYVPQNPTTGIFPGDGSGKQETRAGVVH
- assay.notes: BLI (ForteBio), antibody on anti-human Fc sensor, CD33 10 nM
One number for each entry, as −log10 of the molar value.

Use the examples below as a reference point.
anti-CD33 antibody 6C7H25 (antibody, V domains shown, VH/VL only) VH: EVQLVESGGGLVQPGGSLRLSCAGSGFTFSNYEMNWVRQAPGKGLEWVAEIRLKSNNYVTNYAASVKGRFTISRDDSKNSVYLQMNSLKTEDTGVYYCTRAGYYVPFAYWGQGTLVTVSS VL: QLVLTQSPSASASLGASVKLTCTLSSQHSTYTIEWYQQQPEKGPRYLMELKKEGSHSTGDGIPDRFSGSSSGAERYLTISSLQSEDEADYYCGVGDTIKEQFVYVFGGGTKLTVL : 9.61
anti-CD33 antibody 6C7H22 (antibody, V domains shown, VH/VL only) VH: EVQLVESGGGLVQPGGSLRLSCAGSGFTFSNYTMNWVRQAPGKGLEWVAEIRLKSNNYVTNYAASVKGRFTISRDDSKNSVYLQMNSLKTEDTGVYYCTRAGYYVPFAYWGQGTLVTVSS VL: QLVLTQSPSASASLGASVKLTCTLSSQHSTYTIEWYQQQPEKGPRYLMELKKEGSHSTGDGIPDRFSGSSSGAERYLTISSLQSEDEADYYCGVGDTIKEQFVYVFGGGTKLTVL : 9.33

Next binder, pKd to be filled in.
// query # get_value(readout='pKd', item= anti-CD33 antibody 6C7H29 (antibody, V domains shown, VH/VL only) VH: EVQLVESGGGLVQPGGSLRLSCAGSGFTFSAYSMNWVRQAPGKGLEWVAEIRLKSNNYVTNYAASVKGRFTISRDDSKNSVYLQMNSLKTEDTGVYYCTRAGYYVPFAYWGQGTLVTVSS VL: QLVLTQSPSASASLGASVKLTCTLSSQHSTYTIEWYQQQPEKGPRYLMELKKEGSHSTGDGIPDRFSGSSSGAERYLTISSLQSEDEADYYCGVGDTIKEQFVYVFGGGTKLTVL )
// result 9.00
